# Tested on: giant foxtail (Setaria faberi)
# experiment.summary: Test G Post-Emergence Protocol
# Assay type: in vivo
# condition.description: Setaria faberi, post-emergence, 312 h, 250 g ai/ha, evaluated after 13 days, read-out: damage to plant, Foxtail, Giant (100=total damage to plant; 0=no damage to plant)
# Source text: Seeds of corn (Zea mays), giant foxtail (Setaria faberi), barnyardgrass (Echinochloa crus-galli), ivy-leaved morning glory (Ipomoea hederacea), redroot pigweed (Amaranthus retroflexus) and velvetleaf (Abutilon theophrasti) were sown in standard soil in pots. […]
Each record here notes measured pest or weed control at 250 g/ha.

Here's what some known entries look like.
- compound: "CN1C[C@@H](c2ccc(C(F)(F)F)cc2)[C@H](C(=O)Nc2ccc(Cl)nn2)C1=O (racemic) [Compound 1561]"
  target.system: "giant foxtail (Setaria faberi)"
  observed: "60%"
- compound: "Cc1cc([C@@H]2CN(C)C(=O)[C@H]2C(=O)Nc2cccc(F)c2F)cnc1Cl (racemic) [Compound 1493]"
  target.system: "giant foxtail (Setaria faberi)"
  observed: "60%"
- compound: "COC(=O)c1cc([C@H]2CN(C)C(=O)[C@@H]2C(=O)Nc2ccccc2F)ccc1Cl (racemic) [Compound 1460]"
  target.system: "giant foxtail (Setaria faberi)"
  observed: "70%"
- compound: "Cc1ccc([C@H]2CN(C)C(=O)[C@@H]2C(=O)Nc2ccc(F)nc2F)cc1 [Compound 1402]"
  target.system: "giant foxtail (Setaria faberi)"
  observed: "80%"
- compound: "Cc1ncc(NC(=O)[C@@H]2C(=O)N(C)C[C@H]2c2ccc(C(F)(F)F)cc2)s1 (racemic) [Compound 1595]"
  target.system: "giant foxtail (Setaria faberi)"
  observed: "10%"

stdin: Lab request: please report pest or weed control at 250 g/ha under test system giant foxtail (Setaria faberi) for CN1C[C@@H](c2ccc(C(F)(F)F)cc2)[C@H](C(=O)Nc2cccc3cn[nH]c23)C1=O (racemic) [Compound 1605]
stdout: 10%

stdin: Hi! What's the reported pest or weed control at 250 g/ha for CN1C[C@H](c2ccc(C(F)(F)F)cc2)[C@@H](C(=O)Nc2ccc(C(F)(F)F)c(F)c2F)C1=O (racemic) [Compound 1451] on giant foxtail (Setaria faberi)?
stdout: 0%

stdin: Please provide the recorded pest or weed control at 250 g/ha for Cc1cc([C@@H]2CN(C)C(=O)[C@H]2C(=O)Nc2cccc(F)c2F)cc(Cl)n1 (racemic) [Compound 1481] , tested on giant foxtail (Setaria faberi).
stdout: 70%

----------
# Test system: ryegrass, Italian (Italian ryegrass, Lolium multiflorum)
# experiment.summary: Test A postemergence
# Format: in vivo
# condition.description: Lolium multiflorum, post-emergence, 240 h, 125 g ai/ha, Postemergence, visual rating about 10 d after treatment; read-out: Ryegrass, Italian plant response rating (0 to 100 scale)
// reported pest or weed control at 125 g/ha for each item listed
Answer format: numeric, % implied, no suffix.

Worked examples follow.
- compound: "COc1ccc([C@H]2CN(C)C(=O)[C@@H]2C(=O)Nc2ccccc2F)cc1 [Compound 1342]"
  unit.name: "%"
  pest or weed control at 125 g/ha: 0
- compound: "CN1C[C@H](c2csc3c2CCC3)[C@@H](C(=O)Nc2cccc(F)c2F)C1=O [Compound 1278]"
  unit.name: "%"
  pest or weed control at 125 g/ha: 0
- compound: "Cc1ccc([C@H]2CN(C)C(=O)[C@@H]2C(=O)Nc2c(F)c(F)c(F)c(F)c2F)cc1 [Compound 1292]"
  unit.name: "%"
  pest or weed control at 125 g/ha: 0
- compound: "Cc1ccc([C@H]2CN(C)C(=O)[C@@H]2C(=O)Nc2ccccc2)cc1 [Compound 1291]"
  unit.name: "%"
  pest or weed control at 125 g/ha: 0
- compound: "CN1C[C@H](c2csc3c2CCCC3)[C@@H](C(=O)Nc2ccccc2F)C1=O [Compound 1275]"
  unit.name: "%"
  pest or weed control at 125 g/ha: 0
- compound: "COc1cc(OC)cc([C@H]2CN(C)C(=O)[C@@H]2C(=O)Nc2cccc(F)c2F)c1 [Compound 1370]"
  unit.name: "%"
  pest or weed control at 125 g/ha: 40

stdin: Please report the recorded pest or weed control at 125 g/ha for COc1cc([C@H]2CN(C)C(=O)[C@@H]2C(=O)Nc2ccccc2SC)ccc1F [Compound 1301] .
stdout: 0

stdin: What value of measured pest or weed control at 125 g/ha is listed for CN1C[C@H](c2cccc(C(C)(F)F)c2)[C@@H](C(=O)Nc2ccccc2F)C1=O [Compound 1317] ?
stdout: 40

stdin: Any idea what its pest or weed control at 125 g/ha is? The compound is CN1C[C@H](c2ccc3c(c2)C(F)(F)C(F)(F)O3)[C@@H](C(=O)Nc2cccc(F)c2F)C1=O [Compound 1271]
stdout: 30

stdin: May I ask what pest or weed control at 125 g/ha has been recorded for O=C1NC[C@H](c2cnc(C(F)(F)F)nc2)[C@H]1C(=O)Nc1cccc(F)c1F [Compound 1382] ?
stdout: 0

Source of measurements: patent US12077503B2
